Tested on: NCI-H522 lung
PROTOCOL NOTES: NCI-60 one-dose screen, 48 h (100 = growth as untreated, 0 = no growth, -100 = all killed)
CONDITION SET: 10 µM unless noted
The panel holds about 83,000 compounds, 20% with a hit somewhere; the sample as a whole holds those more often.
Items are presented alongside their recorded growth.

{"columns": ["COMPOUND", "growth [%]"],
 "data": [
  ["COc1ccc(C(=O)C/C(=C\\c2ccc(Cl)cc2)C(=O)NCc2ccccc2)cc1", 60.7],
  ["C1CCC([PH+](C2CCCCC2)C2CCCCC2[PH+](C2CCCCC2)C2CCCCC2)CC1.[Au].[CH-]1CCCCC1C1CCCC[N-]1 (centres undefined)", -51],
  ["COC(=O)/C=C1/SC(=Nc2cccc(OC)c2)N(CCc2c[nH]c3ccc(O)cc23)C1=O", 54.3],
  ["Nc1ncc(-c2ccc3ncnc(Nc4cccc(Cl)c4)c3c2)cn1", 3.25],
  ["COC(=O)Nc1nc2ccc(S(=O)c3ccccc3)cc2[nH]1 (centres undefined)", 65.8],
  ["CC1OC(n2c3ccccc3c3c4c(c5c6ccccc6[nH]c5c32)C(=O)N(CCN2CCCC2)C4=O)CC(O)C1O (centres undefined)", 24.5],
  ["Cc1c[n+](Cc2ccc3ccccc3c2)cn1Cc1ccc2ccccc2c1", -17.9],
  ["CCOC(=O)c1c(NC(=O)c2cccc(C(F)(F)F)c2)sc2c(CN(C)C)c(O)ccc12", 71.9],
  ["Cn1c(I)c(C#CCO[Si](C)(C)C(C)(C)C)c(=O)[nH]c1=O", 74.2],
  ["CN1CCN(c2cc(Nc3cc(C4CC4)[nH]n3)nc(Nc3ccc(CC(=O)NCc4cccc(F)c4)cc3)n2)CC1", 61.2],
  ["Cc1ccc(Nc2cc(N)nc(N)n2)cc1Cl", 87],
  ["S=c1sc2c(Cl)nc(-c3cccnc3)nc2n1-c1ccccc1", -65.8],
  ["Cc1csc(Nc2nc(-c3ccccn3)nc(C(Cl)(Cl)Cl)n2)n1", 86.7],
  ["COC(CC(F)F)c1cn(S(=O)(=O)c2ccc(C)cc2)c2ccccc12 (centres undefined)", 42.7],
  ["O=C1NC(=O)C(Cc2ccc(OCc3ccc(-c4ccc(Cl)cc4Cl)cc3)cc2)S1 (centres undefined)", 26.8],
  ["c1ccc(Cn2cc3c(c2)-c2oncc2CC3)cc1", 21.3],
  ["O=C(Cn1cc(CSc2nc3ccccc3o2)nn1)Nc1ccc(F)cc1F", 111],
  ["C=C(CBr)[C@@H]1CC[C@]2(C(=O)O)CC[C@]3(C)[C@H](CC[C@@H]4[C@@]5(C)CCC(=O)C(C)(C)[C@@H]5CC[C@]43C)[C@@H]12", 46.5],
  ["CC(C)(C)[Si](C)(C)OC1[C@@H](CNC(=O)NC(=O)NC(N)=O)O[C@@H](n2cnc3c(NC(=O)Nc4ccccc4)ncnc32)[C@H]1O[Si](C)(C)C(C)(C)C (some centres undefined)", 43.3]
]}
